system: PLK3; conditions: concentration: 1 μM, replicates: in singlicate; n = 1
PARAMETER: %Inh (%)
Entry rule: numbers only, all in %.

smiles_text=Cc1c2ccc(N(C)c3ccnc(Nc4cccc(S(N)(=O)=O)c4)n3)cc2nn1Cc1ccccc1.Cl.Cl parameter=%Inh units=% experimental_result=15
smiles_text=O=C1NC(=O)C(N2CCc3ccccc32)=C1c1cccc(Cl)c1 parameter=%Inh units=% experimental_result=4
smiles_text=Cc1cccc(-c2nc(-c3ccc(S(C)(=O)=O)cc3)sc2-c2ccncc2)c1 parameter=%Inh units=% experimental_result=6

Query: %Inh; subject: `c1ccc(-c2n[nH]cc2-c2ccnc3ccccc23)nc1` 0

====

test system: CSNK2A2; conditions: concentration: 1 μM, replicates: in singlicate; n = 1
Label met when %Inh is strictly below 10%; otherwise label not met.

Study these solved cases before continuing.
molecule="C[C@@H](Oc1cc(-n2cnc3ccc(NC(=O)NC(C)(C)C)cc32)sc1C(N)=O)c1ccccc1Cl [GSK346294]" target_entity=CSNK2A2 group_label=met
molecule="CC(=O)Nc1ccc(COc2ccc(Nc3ccnc4cc(-c5ccccn5)ccc34)cc2)cc1.Cl [GW440148]" target_entity=CSNK2A2 group_label="not met"
molecule="O=c1cc(N2CCOCC2)nc2n(Cc3cccc4ccccc34)ccn12 [GSK2333389]" target_entity=CSNK2A2 group_label=met
molecule=Cc1ccc(C(=O)NCC(N)=O)cc1-n1c(C)cc(OCc2ccc(F)cc2F)c(Br)c1=O target_entity=CSNK2A2 group_label=met
molecule=CSc1ccc(-c2cc3ncnc(SCC(=O)O)c3s2)cc1 target_entity=CSNK2A2 group_label="not met"
molecule="COc1ccc(Nc2ncc(C#N)c(Nc3ccccc3C(N)=O)n2)cc1N1CCN(C)CC1.Cl [GSK1558669]" target_entity=CSNK2A2 group_label="not met"

Item COc1cc(Nc2nccc(N3CCC(NC(=O)c4cccc(NC(C)=O)c4)C3)n2)cc(OC)c1OC (stereo not shown) [GSK1379754] : %Inh beneath 10%, strictly? not met

Item O=C1NC(=O)C(N2CCc3ccccc32)=C1c1cccc(Cl)c1 [SB-408010] : %Inh beneath 10%, strictly? not met

====

test system: SGK2;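 note: kd values determined as follow-up on hits from a single-replicate KINOMEscan panel screen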
pKd: −log10 of the molar value.
PARAMETER: pKd

Query: pKd; subject: `CN1c2ccc(CNc3ccc(F)cc3)cc2-c2c(cnn2C)S1(=O)=O` < 5.00

====

tested on: FLT3; conditions: concentration: 1 μM, replicates: in singlicate; n = 1
Readings of %Inh for the listed molecules
Entry rule: numbers only, all in %.

molecule=CN1c2ccc(NCc3ccc(F)cc3)cc2-c2c(cnn2C)S1(=O)=O experimental_result=12

Query: %Inh; subject: `Cc1c2ccc(N(C)c3ccnc(Nc4cccc(S(N)(=O)=O)c4)n3)cc2nn1Cc1ccccc1.Cl.Cl` 98.5

Query: %Inh; subject: `CC(C)Oc1ccc2c(-c3ccnc(Nc4ccc(N5CCN(C)CC5)cc4)n3)cnn2n1` 98.3

Query: %Inh; subject: `COC(=O)Nc1nc2cc(Oc3ccc(NC(=O)Nc4cc(F)ccc4F)cc3)ccc2[nH]1.Cl` 99.2

Query: %Inh; subject: `Cc1cn2c(=O)cc(N3CCOCC3)nc2n1Cc1cccc(Cl)c1Cl` 13

Query: %Inh; subject: COc1cc(Nc2nccc(N3CCC(NC(=O)c4cccc(NC(C)=O)c4)C3)n2)cc(OC)c1OC (centres unmarked) 50

Query: %Inh; subject: `COc1cc2c(cc1OCCN1CCN(C)CC1)ncc1c3ccc(C#N)cc3[nH]c21` 98.6

Query: %Inh; subject: `Cc1ccc(NC(=O)c2ccnc(N3CCN(C)CC3)c2)cc1-c1ccc(C(=O)NCC2CC2)cc1` 0

====

system: SBK1; settings: concentration: 1 μM, replicates: in singlicate; n = 1
PARAMETER: %Inh (%)
Entry rule: numbers only, all in %.

Take a look at these entries with their results.
compound=Cn1ccc2ncnc(Oc3ccc(NC(=O)Nc4ccncc4)c(Cl)c3)c21 target_entity=SBK1 parameter=%Inh units=% experimental_result=0
compound="O=C(Nc1cccc(-c2nn3ncccc3c2-c2ccnc(Nc3cccc(C(F)(F)F)c3)n2)c1)c1c(F)cccc1F [GSK299495]" target_entity=SBK1 parameter=%Inh units=% experimental_result=11

Query: %Inh; subject: CC(C)Oc1ccc2c(-c3ccnc(Nc4ccc(N5CCN(C)CC5)cc4)n3)cnn2n1 [GW696155] 88

Query: %Inh; subject: COc1ccc(S(=O)(=O)NC2CCN(c3cc(C)nc(Nc4cccc(C#N)c4)n3)CC2)cc1.O=C(O)C(F)(F)F [GSK1653539] 0

====

test system: YANK1; construct: gene STK32A; details: concentration: 1 μM, replicates: in singlicate; n = 1
PARAMETER: %Inh (%)
Entry rule: numbers only, all in %.

compound="CCn1cnc2c(N)ncnc21 [GW345098]" parameter=%Inh units=% experimental_result=0
compound="CN(C(=O)c1ccc(-c2cc(-c3c[nH]nc3-c3ccccn3)ccn2)cc1)C1CCOCC1 [GW810083]" parameter=%Inh units=% experimental_result=0
compound="Cc1c2ccc(N(C)c3ccnc(Nc4cccc(S(N)(=O)=O)c4)n3)cc2nn1Cc1ccccc1.Cl.Cl [GW787226]" parameter=%Inh units=% experimental_result=0
compound="Cn1cc(-c2ccc3c(c2)CCN3C(=O)Cc2ccccc2Cl)c2c(N)ncnc21 [GSK2608885]" parameter=%Inh units=% experimental_result=32
compound="O=C(NCCCN1CCOCC1)c1cccc(Nc2nccc(Nc3ccc(Oc4ccccc4)cc3)n2)c1 [GW663929]" parameter=%Inh units=% experimental_result=0

Query: %Inh; subject: [2H]C([2H])(c1cccc(C(F)(F)F)c1C)n1ccn2c(=O)nc(N3CCOCC3)cc12 [GSK2336394] 11

Query: %Inh; subject: CC(C)(C)n1cnc2c(N)ncnc21 [SKF-97359] 0

Query: %Inh; subject: NCC(NC(=O)c1cc(-c2cn[nH]c2)c(-c2ccnc3[nH]ccc23)s1)c1ccccc1.O=C(O)C(F)(F)F.O=C(O)C(F)(F)F (centres unmarked) [GSK1325775] 15

====

Readings of %Inh for the listed molecules
tested on: PAK7; conditions: concentration: 1 μM, replicates: in singlicate; n = 1
Entry rule: numbers only, all in %.

Take a look at these entries with their results.
molecule="O=C(Nc1cccc(-c2nn3ncccc3c2-c2ccnc(Nc3cccc(C(F)(F)F)c3)n2)c1)c1c(F)cccc1F [GSK299495]" units=% experimental_result=0
molecule="Cc1cccc(-c2nc(Nc3ccc4ncsc4c3)c3ccccc3n2)n1 [GW867588]" units=% experimental_result=8
molecule="C[C@@H](Oc1cc(-n2cnc3ccc(NC(=O)NC(C)(C)C)cc32)sc1C(N)=O)c1ccccc1Cl [GSK346294]" units=% experimental_result=29
molecule="N#Cc1ccc(-c2cc(-c3c[nH]nc3-c3ccccn3)ccn2)cc1 [GW693028]" units=% experimental_result=11

Query: %Inh; subject: COc1ccc(CNC(=O)NC2CCN(c3ccnc(Nc4ccc(OC)cc4)n3)C2)cc1 (stereo not shown) [GSK1379727] 1

Query: %Inh; subject: NS(=O)(=O)CCc1cccc(Nc2nccc(-c3c(-c4cccc(NC(=O)c5c(F)cccc5F)c4)nn4ccccc34)n2)c1 [GSK336735] 4

Query: %Inh; subject: NCC(NC(=O)c1cc(-c2cn[nH]c2)c(-c2ccnc3[nH]ccc23)s1)c1ccccc1.O=C(O)C(F)(F)F.O=C(O)C(F)(F)F (stereo not shown) [GSK1325775] 74

====

Readings of %Inh for the listed compounds
test system: CAMK2A; details: concentration: 1 μM, replicates: in singlicate; n = 1
Entry rule: numbers only, all in %.

smiles_text=Cn1cc(-c2ccc3c(c2)CCN3C(=O)Cc2ccccc2Cl)c2c(N)ncnc21 units=% experimental_result=0
smiles_text=CCc1nc(-c2cccc(C)c2)c(-c2ccnc(NCc3ccccc3)c2)s1 units=% experimental_result=11
smiles_text=CN(C1=C(c2ccccc2)C(=O)NC1=O)c1ccccc1 units=% experimental_result=7
smiles_text=Cn1ccc2ncnc(Oc3ccc(NC(=O)Nc4ccncc4)c(Cl)c3)c21 units=% experimental_result=0

Next compound, please.
Query: %Inh; subject: `CN1c2ccc(NCc3ccc(F)cc3)cc2-c2c(cnn2C)S1(=O)=O` 0

====

system: MRCKA; details: concentration: 1 μM, replicates: in singlicate; n = 1
PARAMETER: %Inh (%)
Entry rule: numbers only, all in %.

Take a look at these entries with their results.
compound=O=C(Nc1n[nH]c2cc(-c3cccc(F)c3)ccc12)C1CC1 target_entity=MRCKA parameter=%Inh experimental_result=4
compound=c1ccc(-c2n[nH]cc2-c2ccnc3ccccc23)nc1 target_entity=MRCKA parameter=%Inh experimental_result=28
compound="COc1cc(Nc2nccc(N3CCC(NC(=O)c4cccc(NC(C)=O)c4)C3)n2)cc(OC)c1OC (centres unmarked)" target_entity=MRCKA parameter=%Inh experimental_result=0
compound=Cn1ccc2ncnc(Oc3ccc(NC(=O)Nc4ccncc4)c(Cl)c3)c21 target_entity=MRCKA parameter=%Inh experimental_result=0

Query: %Inh; subject: `CC(C)(C)n1cnc2c(N)ncnc21` 0
